Every entry's value here was drawn from patent US20260250275A1.

Target: human GC-A (Homo sapiens, UniProt P16066)
Construct: host or cells: HEK293
Sequence (P16066 33-1061): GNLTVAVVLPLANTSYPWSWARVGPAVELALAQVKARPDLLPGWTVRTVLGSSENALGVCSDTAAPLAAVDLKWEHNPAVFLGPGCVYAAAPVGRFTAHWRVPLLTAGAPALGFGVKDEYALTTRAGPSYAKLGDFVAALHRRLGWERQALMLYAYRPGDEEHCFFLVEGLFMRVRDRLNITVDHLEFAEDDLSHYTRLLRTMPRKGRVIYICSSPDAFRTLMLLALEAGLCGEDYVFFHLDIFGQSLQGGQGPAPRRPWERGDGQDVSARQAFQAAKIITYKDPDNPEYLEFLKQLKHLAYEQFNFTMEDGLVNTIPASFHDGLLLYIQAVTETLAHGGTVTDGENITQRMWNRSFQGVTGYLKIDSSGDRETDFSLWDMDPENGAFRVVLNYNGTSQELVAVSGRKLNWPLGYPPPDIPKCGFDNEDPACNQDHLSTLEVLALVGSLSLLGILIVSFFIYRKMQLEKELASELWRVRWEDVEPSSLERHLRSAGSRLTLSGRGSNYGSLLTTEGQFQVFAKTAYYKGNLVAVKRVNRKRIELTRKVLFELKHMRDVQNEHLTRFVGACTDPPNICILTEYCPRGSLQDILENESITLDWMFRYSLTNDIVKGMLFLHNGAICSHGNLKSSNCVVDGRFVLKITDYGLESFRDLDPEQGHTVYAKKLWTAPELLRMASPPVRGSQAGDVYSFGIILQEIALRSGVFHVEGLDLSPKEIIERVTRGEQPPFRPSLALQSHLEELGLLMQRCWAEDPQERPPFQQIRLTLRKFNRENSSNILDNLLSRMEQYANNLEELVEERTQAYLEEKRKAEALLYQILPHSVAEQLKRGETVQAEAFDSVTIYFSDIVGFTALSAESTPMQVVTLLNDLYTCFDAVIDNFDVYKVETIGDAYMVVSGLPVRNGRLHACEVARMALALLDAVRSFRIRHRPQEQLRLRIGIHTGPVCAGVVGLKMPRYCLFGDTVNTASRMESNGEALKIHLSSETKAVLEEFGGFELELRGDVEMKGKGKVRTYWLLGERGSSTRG
Sequence (P01160 124-151 partner limits assumed): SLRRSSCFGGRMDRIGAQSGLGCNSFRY
Assay: cGMP potentiation (HTRF) in human GC-A overexpressing HEK293 cells with EC20 ANP
Format: cell-based
Conditions: titrated on each 384-test plate; read-out: Acceptable EC50 values of internal control (FIG. 2)
pEC50: −log10 of the molar value.
PROPERTY: pEC50

Q: // lookup pEC50 for CN(C)CCN1CCCC(C(=O)Nc2nc3c(F)cc(F)cc3s2)C1 (stereo not shown) [MCUF 651, reference compound]
Result: 6.22 to 6.70
